conditions: Ebola virus entry cell assay, ratio channel
Activity calls are given as the source filed them. The call rests on the fitted dose curve.
Respond only with the outcome that fits, drawn from 1 for active, -1 for inactive

CC(C)NCC(O)c1ccc(NS(C)(=O)=O)cc1 (stereo not drawn) : -1
CO/N=C(\C(=O)N[C@@H]1C(=O)N2C(C(=O)O)=C(C[N+]3(C)CCCC3)CS[C@H]12)c1csc(N)n1 : -1
CCOC(=O)C1=C[C@@H](OC(CC)CC)[C@H](NC(C)=O)[C@@H](N)C1 : -1

Prompt: Recorded test outcome, item Nc1nc2[nH]cc(CCc3ccc(C(=O)N[C@@H](CCC(=O)O)C(=O)O)cc3)c2c(=O)[nH]1
Response: -1

Prompt: Recorded test outcome, item CO/N=C(\C(=O)N[C@@H]1C(=O)N2C(C(=O)O)=CCS[C@H]12)c1csc(N)n1
Response: -1

Prompt: Recorded test outcome, item CC(C)C[C@H]1C(=O)N2CCC[C@H]2[C@]2(O)O[C@](NC(=O)[C@@H]3C=C4c5cccc6[nH]c(Br)c(c56)C[C@H]4N(C)C3)(C(C)C)C(=O)N12
Response: -1

Prompt: Recorded test outcome, item O=C1Nc2ccc(Cl)cc2C(c2ccccc2)=NC1O (stereo not drawn)
Response: -1

Prompt: Recorded test outcome, item C=C[C@H]1CN2CC[C@H]1C[C@H]2[C@H](O)c1ccnc2ccc(OC)cc12
Response: -1

Prompt: Recorded test outcome, item CC[C@H]1OC(=O)[C@H](C)C(=O)[C@H](C)[C@@H](O[C@@H]2O[C@H](C)C[C@H](N(C)C)[C@H]2O)[C@](C)(OC)C[C@@H](C)C(=O)[C@H](C)[C@H]2N(CCCCn3cnc(-c4cccnc4)c3)C(=O)O[C@]12C
Response: -1

Prompt: Recorded test outcome, item CN(C)CCOc1ccc(/C(=C(/CCCl)c2ccccc2)c2ccccc2)cc1
Response: 1

Prompt: Recorded test outcome, item CN1C(=O)CC(=O)N(c2ccccc2)c2cc(Cl)ccc21
Response: -1

Just for reference, PubChem BioAssay (NCATS) is where these values come from.
